- test-system: human TLR7 (Homo sapiens (Human))
- Sequence (Q9NYK1 27-1049): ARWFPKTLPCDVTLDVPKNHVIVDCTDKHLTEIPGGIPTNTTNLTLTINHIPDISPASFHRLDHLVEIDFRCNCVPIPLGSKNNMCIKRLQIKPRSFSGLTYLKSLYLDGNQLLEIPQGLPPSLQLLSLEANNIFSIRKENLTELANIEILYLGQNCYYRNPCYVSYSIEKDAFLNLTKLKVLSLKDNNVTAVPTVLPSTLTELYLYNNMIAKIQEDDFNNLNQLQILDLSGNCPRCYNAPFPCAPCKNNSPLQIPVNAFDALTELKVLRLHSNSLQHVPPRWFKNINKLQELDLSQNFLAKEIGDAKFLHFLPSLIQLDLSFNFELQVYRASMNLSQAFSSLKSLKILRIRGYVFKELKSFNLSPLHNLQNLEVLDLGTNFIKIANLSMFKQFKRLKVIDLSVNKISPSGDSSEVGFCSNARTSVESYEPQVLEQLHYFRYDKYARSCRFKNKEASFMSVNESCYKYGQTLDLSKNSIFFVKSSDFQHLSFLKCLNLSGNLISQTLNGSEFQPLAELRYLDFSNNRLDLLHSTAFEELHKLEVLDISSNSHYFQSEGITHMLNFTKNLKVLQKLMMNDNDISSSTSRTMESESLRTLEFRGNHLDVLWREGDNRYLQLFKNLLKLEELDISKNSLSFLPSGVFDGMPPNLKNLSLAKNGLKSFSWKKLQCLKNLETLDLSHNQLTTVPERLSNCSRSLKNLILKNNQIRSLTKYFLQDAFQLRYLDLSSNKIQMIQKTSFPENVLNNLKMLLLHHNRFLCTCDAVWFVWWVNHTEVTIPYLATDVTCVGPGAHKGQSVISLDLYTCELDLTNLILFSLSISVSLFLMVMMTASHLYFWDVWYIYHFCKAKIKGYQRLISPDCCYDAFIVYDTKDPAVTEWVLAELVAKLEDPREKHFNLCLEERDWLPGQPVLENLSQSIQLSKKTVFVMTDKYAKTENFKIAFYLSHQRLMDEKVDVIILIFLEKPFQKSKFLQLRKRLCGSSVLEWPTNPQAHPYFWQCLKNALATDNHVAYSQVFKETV
- assay-details: TLR7 inhibition reporter assay (HEK-Blue SEAP)
- Format: cell-based
- cond: HEK-Blue cells overexpressing human TLR7, gardiquimod 7.5 μM stimulation, SEAP reporter
Consider the following compounds; for each one, report its IC50.
Respond numerically; units are nM and should not be typed.

(Q) // returns reported IC50 for input Cc1c(-c2[nH]c3ccc(C4CCC(NC5COC5)CC4)nc3c2C(C)C)cn2ncnc2c1C (stereo not drawn) [Example 351]
(A) 2.3

(Q) // repeat for `CNC(=O)CN1CCN(c2ccc3[nH]c(-c4cc(OC)c5ncnn5c4)c(C(C)C)c3n2)CC1` and report
(A) 11

(Q) // repeat for COc1cc(-c2[nH]c3cc(C)c(C4CCC(NC5(C)COC5)CC4)nc3c2C(C)C)cn2ncnc12 (stereo not drawn) [Example 310] and report
(A) 0.39

(Q) Also `CC(C)c1c(-c2cn(C)c3ncncc23)[nH]c2ccc(N3CCN(C(=O)CCN(C)C)CC3)nc12` ?
(A) 1.2

(Q) Ok, now Cc1c(-c2[nH]c3ccc(C4CCC(N(C)C5COC5)CC4)nc3c2C(C)C)cn(C)c(=O)c1C (stereo not drawn) [Example 249]
(A) 25

(Q) Quick one: CNC1CCC(c2ccc3[nH]c(-c4cn(C)c5ncncc45)c(C(C)C)c3n2)CC1 (stereo not drawn) [Example 301]
(A) 2

(Q) Next entry: CC(C)c1c(-c2cn(CC#N)c3ncccc23)[nH]c2ccc(C3CCC(NCCS(C)(=O)=O)CC3)nc12 (stereo not drawn) [Example 275]
(A) 14

(Q) Field entry: `Cc1c(-c2[nH]c3ccc(N4CCN(CC5(C)COC5)CC4)nc3c2C(C)C)cn2ncnc2c1C`
(A) 28

(Q) Param item: `Cc1ncc(CN(C)C2CCN(c3ccc4[nH]c(-c5cn6ncnc6c(C)c5C)c(C(C)C)c4n3)CC2)cn1`
(A) 3.8

(Q) Check `Cc1c(-c2[nH]c3ccc(N4CCN(C(=O)CNC(C)C)CC4)nc3c2C(C)C)cn2ncnc2c1C` too.
(A) 2.2

(Q) Cc1c(-c2[nH]c3ccc(C4CCC(NCCC#N)CC4)nc3c2C(C)C)cn2ncnc2c1C (stereo not drawn) ?
(A) 13

(Q) What do we get for `Cc1c(-c2[nH]c3ccc(N4CCN(CCCS(C)(=O)=O)CC4)nc3c2C(C)C)cn2ncnc2c1C` ?
(A) 5

(Q) Okay, and Cc1c(-c2[nH]c3ccc(C4CCC(N(C)CCO)CC4)nc3c2C(C)C)cn2ncnc2c1C (stereo not drawn) ?
(A) 4.2

(Q) Now give it for CC(C)c1c(-c2cn(C)c3ncncc23)[nH]c2ccc(C3CCC(NC4CCOCC4)CC3)nc12 (stereo not drawn) too.
(A) 4

(Q) Now consider `COc1cc(-c2[nH]c3ccc(N4CCN(CCC(=O)N(C)C)CC4)nc3c2C(C)C)cn2ncnc12` .
(A) 5.7

(Q) Repeat with CC(C)c1c(-c2cn(CC#N)c3ncccc23)[nH]c2ccc(C3CCC(NCC(=O)N(C)C)CC3)nc12 (stereo not drawn) [Example 272]
(A) 76

(Q) Now consider `Cc1c(-c2[nH]c3ccc(N4CCNC[C@H]4C)nc3c2C(C)C)cn2ncnc2c1C` .
(A) 0.87

(Q) Another compound to look at: COc1cc(-c2[nH]c3ccc(C4CCC(NCC5(S(C)(=O)=O)CC5)CC4)nc3c2C(C)C)cn2ncnc12 (stereo not drawn)
(A) 3.9

(Q) Entry CNC1CCC(c2ccc3[nH]c(-c4cn(CCO)c5ncccc45)c(C(C)C)c3n2)CC1 (stereo not drawn) [Example 295] please
(A) 11

(Q) Can you handle `CC(C)c1c(-c2cn(C)c3ncncc23)[nH]c2ccc(N3CCN(C)CC3)nc12` next?
(A) 2.6

(Q) Queued: CC(C)c1c(-c2cc(CO)c3ncnn3c2)[nH]c2ccc(C3CCC(NCCC(F)(F)F)CC3)nc12 (stereo not drawn) [Example 307]
(A) 0.86

(Q) For CC(C)c1c(-c2cn(CCS(C)(=O)=O)c3ncccc23)[nH]c2ccc(C3CCC(NC4CCCOC4)CC3)nc12 (stereo not drawn) then?
(A) 120

(Q) Repeat for the following compound: COc1cc(-c2[nH]c3ccc(C4CCC(N(C)Cc5ncccn5)CC4)nc3c2C(C)C)cn2ncnc12 (stereo not drawn) [Example 209]
(A) 0.71

(Q) Can you check COCc1cc(-c2[nH]c3ccc(C4CCC(NCC(=O)N(C)C)CC4)nc3c2C(C)C)cn2ncnc12 (stereo not drawn) [Example 213] next?
(A) 9.5

(Q) Please answer likewise for Cc1c(-c2[nH]c3ccc(C4CCC(N5CCS(=O)(=O)CC5)CC4)nc3c2C(C)C)cn2ncnc2c1C (stereo not drawn) [Example 383]
(A) 33

(Q) Same question for CC(C)c1c(-c2cn(CCS(C)(=O)=O)c3ncccc23)[nH]c2ccc(C3CCC(N4CC5(COC5)C4)CC3)nc12 (stereo not drawn) please.
(A) 13

(Q) Lookup `Cc1nccc(CN(Cc2ccnc(C)n2)C2CCN(c3ccc4[nH]c(-c5cn6ncnc6c(C)c5C)c(C(C)C)c4n3)CC2)n1`
(A) 2470

(Q) Here is the next compound: COc1cc(-c2[nH]c3ccc(C4CCC(NCC(=O)N(C)C)CC4)nc3c2C(C)C)cn2ncnc12 (stereo not drawn) [Example 181]
(A) 1.7

(Q) Same for Cc1c(-c2[nH]c3ccc(C4CCC(NCCC(F)(F)F)CC4)nc3c2C(C)C)cn2ncnc2c1C (stereo not drawn) [Example 376]
(A) 0.71
